Consider the following molecules and their measured pIC50 readings.
TEST_TARGET: Dimer of Gag-Pol polyprotein [489-587,Q496K] (Human immunodeficiency virus 1, UniProt P12497, Q496K)
Construct: 489-587
RUN_DESCRIPTION: Protease Inhibition Assay
TEST_PARAMETERS: pH 5.5; 30 °C
pIC50: −log10 of the molar value.

# INPUT_SMILES, MEAS_VALUE
data = [
    ("CC(C)(c1ncc(-c2ccc(Cl)cc2)o1)N1CCN(C[C@@H](O)C[C@@H](Cc2cc3ccncc3s2)C(=O)N[C@H]2c3ccccc3OC[C@H]2O)[C@H](C(=O)NCC(F)(F)F)C1", "> 10.70"),
]

Now, please, on to the next molecule.
[in] I am curious: what pIC50 value has been reported for "CC(C)(c1ncc(-c2ccc(Cl)cc2)o1)N1CCN(C[C@@H](O)C[C@@H](Cc2cc3c(Cl)cncc3s2)C(=O)N[C@H]2c3ccccc3OC[C@H]2O)[C@H](C(=O)NCC(F)(F)F)C1" ?
[out] > 10.70
